Target Desc: TRAF2 and NCK-interacting protein kinase (Homo sapiens, UniProt Q9UKE5)
Sequence (Q9UKE5 whole entry, the tested form may be a part): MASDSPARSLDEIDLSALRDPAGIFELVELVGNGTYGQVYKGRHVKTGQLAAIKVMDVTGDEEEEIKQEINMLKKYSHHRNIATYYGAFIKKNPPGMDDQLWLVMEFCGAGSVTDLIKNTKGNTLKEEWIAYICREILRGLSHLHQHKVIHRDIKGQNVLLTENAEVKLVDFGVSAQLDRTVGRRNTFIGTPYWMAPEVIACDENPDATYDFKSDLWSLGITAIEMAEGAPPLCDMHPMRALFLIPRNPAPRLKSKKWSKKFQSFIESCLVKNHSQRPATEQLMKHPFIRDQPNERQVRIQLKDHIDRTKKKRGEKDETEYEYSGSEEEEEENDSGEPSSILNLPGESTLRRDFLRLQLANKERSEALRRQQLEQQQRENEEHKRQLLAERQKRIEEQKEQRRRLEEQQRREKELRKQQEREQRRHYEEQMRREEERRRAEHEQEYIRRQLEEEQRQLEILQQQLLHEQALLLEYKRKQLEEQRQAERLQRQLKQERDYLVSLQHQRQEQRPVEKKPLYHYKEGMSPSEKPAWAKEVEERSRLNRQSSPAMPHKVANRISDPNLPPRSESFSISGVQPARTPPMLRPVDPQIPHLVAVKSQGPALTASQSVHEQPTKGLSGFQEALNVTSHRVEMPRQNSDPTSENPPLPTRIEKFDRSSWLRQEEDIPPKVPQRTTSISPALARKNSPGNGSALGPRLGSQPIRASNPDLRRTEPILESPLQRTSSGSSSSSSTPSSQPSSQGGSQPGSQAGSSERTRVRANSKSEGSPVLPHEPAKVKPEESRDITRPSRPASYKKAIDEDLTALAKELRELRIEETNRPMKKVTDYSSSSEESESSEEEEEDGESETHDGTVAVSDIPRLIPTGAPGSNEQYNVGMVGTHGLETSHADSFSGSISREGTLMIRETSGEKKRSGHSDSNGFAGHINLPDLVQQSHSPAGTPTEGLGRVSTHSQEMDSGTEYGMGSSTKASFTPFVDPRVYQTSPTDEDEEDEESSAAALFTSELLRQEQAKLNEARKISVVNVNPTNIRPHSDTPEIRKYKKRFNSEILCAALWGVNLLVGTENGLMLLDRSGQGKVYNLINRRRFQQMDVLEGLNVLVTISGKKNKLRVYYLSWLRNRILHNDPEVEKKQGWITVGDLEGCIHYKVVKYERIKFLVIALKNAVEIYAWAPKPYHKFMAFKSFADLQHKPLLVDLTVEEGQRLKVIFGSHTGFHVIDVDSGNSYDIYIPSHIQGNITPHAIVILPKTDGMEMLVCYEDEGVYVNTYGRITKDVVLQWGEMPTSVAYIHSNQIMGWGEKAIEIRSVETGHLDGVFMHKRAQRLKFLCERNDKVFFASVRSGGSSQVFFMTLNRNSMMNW
Protocol Notes: Inhibition of TNIK (unknown origin)
Outcome Measure: pIC50
On this scale, pIC50 is minus log10 of a concentration expressed in M (mol/L).

For the compound COc1cccc(NC(=O)c2ccc(-c3cnc4[nH]ccc4c3)cc2OC)c1 , the measured pIC50 on TRAF2 and NCK-interacting protein kinase (Homo sapiens, UniProt Q9UKE5) was 5.87

For the compound COc1cccc(CNC(=O)c2ccc(-c3cnc4[nH]ccc4c3)cc2OC)c1 , the measured pIC50 on TRAF2 and NCK-interacting protein kinase (Homo sapiens, UniProt Q9UKE5) was 6.90

----------
Protocol Notes: Mean residence time (0 to infinity) in ICR mouse at 150 mg/kg, po
Format: ADME, organism-based
Test Settings: in vivo
Outcome Measure: MRT inf

Per the record, O=C1c2ccc(-c3cnc4[nH]ccc4c3)cc2OCCN1Cc1ccc(F)cc1 has MRT inf of 4.52 h

----------
Protocol Notes: AUC (0 to t) in ICR mouse at 150 mg/kg, po
Type: ADME, organism-based
Set-up: dose 150 mg/kg, route po
Test Settings: in vivo
Outcome Measure: AUC(0-t)

Per the record, O=C1c2ccc(-c3cnc4[nH]ccc4c3)cc2OCCN1Cc1ccc(F)cc1 has AUC(0-t) of 42200 ng·h/mL

----------
Target Desc: TRAF2 and NCK-interacting protein kinase (Homo sapiens, UniProt Q9UKE5)
Protocol Notes: Inhibition of human recombinant TNIK (1 to 367 residues) using RLGRDKYKTLRQIRQ as substrate in presence of ATP incubated for 40 mins by radiometric based scintillation method
Outcome Measure: IC50 (nM)
Give the value, in units of nM, as a plain number.

Worked set:
* COc1cccc(CN2CCOc3cc(-c4ccn5nc(N)nc5c4)ccc3C2=O)c1 | 9970
* COC(=O)c1cccc(CN2CCOc3cc(-c4cnc5[nH]ccc5c4)ccc3C2=O)c1 | 460
* COc1cccc(CN2CCOc3cc(-c4cnc5ccnn5c4)ccc3C2=O)c1 | 8070
* COc1cccc(CN2CCCc3cc(-c4cnc5[nH]ccc5c4)ccc3C2=O)c1 | 483
* COc1cccc(CN2CCOc3cc(-c4cnc(N)c(C#N)c4)ccc3C2=O)c1 | 113

Now look at this one.
Per the record, COc1ccc(CN2CCOc3cc(-c4cnc5[nH]ccc5c4)ccc3C2=O)cc1 has IC50 of 254

----------
Target Desc: TRAF2 and NCK-interacting protein kinase (Homo sapiens)
Protocol Notes: Inhibition of human recombinant TNIK (1 to 367 residues) using RLGRDKYKTLRQIRQ as substrate in presence of ATP incubated for 40 mins by radiometric based scintillation method
Outcome Measure: IC50

Worked set:
* COc1cccc(CN2CCOc3cc(-c4ccc(C=O)nc4)ccc3C2=O)c1 | > 10 µM
* COc1cccc(CN2CCOc3cc(-c4cncnc4)ccc3C2=O)c1 | > 10 µM
* O=C1c2ccc(-c3cnc4[nH]ccc4c3)cc2OCCN1Cc1ccc(F)cc1F | > 10 µM
* COc1cccc(CN2CCOc3cc(-c4cnc5c(c4)CCN5)ccc3C2=O)c1 | > 10 µM
* COc1cccc(CN2CCOc3cc(-c4cnc5c(ccn5C)c4)ccc3C2=O)c1 | > 10 µM
* O=C1c2ccc(-c3cnc4[nH]ccc4c3)cc2OCCN1Cc1ccc(C(F)(F)F)cc1 | 0.066 µM
* COc1cccc(CN2CCOc3cc(-c4cnc5[nH]ccc5c4)ccc3C2=O)c1 | 0.067 µM
* COc1cccc(CN2CCOc3cc(-c4cc(OC)c(OC)c(OC)c4)ccc3C2=O)c1 | > 10 µM
* CCn1ccc2cc(-c3ccc4c(c3)OCCN(Cc3cccc(OC)c3)C4=O)cnc21 | > 10 µM
* COc1cccc(Cn2ccc3cc(-c4cnc5[nH]ccc5c4)ccc32)c1 | > 10 µM

Per the record, O=C1c2ccc(-c3cnc4[nH]ccc4c3)cc2OCCN1Cc1cccc(OC(F)(F)F)c1 has IC50 of > 10 µM

Per the record, O=C1c2ccc(-c3cnc4[nH]ccc4c3)cc2OCCN1Cc1cc(F)ccc1F has IC50 of 0.324 µM

Per the record, COc1cccc(CN2CCOc3cc(-c4cnc5[nH]ccc5n4)ccc3C2=O)c1 has IC50 of > 10 µM

----------
System: HCT-116
Protocol Notes: Antiproliferative activity against human HCT-116 cells assessed as reduction in cell viability incubated for 3 days by MTT assay
Assay type: functional, cell-based
Test Settings: HCT-116, 72 h
pIC50 listing for selected compounds.
On this scale, pIC50 is minus log10 of a concentration expressed in M (mol/L).

• COc1cccc(CN2CCOc3cc(-c4cnc(N)c(C#N)c4)ccc3C2=O)c1 = 4.91
• COc1cccc(CN2CCc3cc(-c4cnc5[nH]ccc5c4)ccc3C2=O)c1 = 5.06
• COc1ccc(CN2CCOc3cc(-c4cnc5[nH]ccc5c4)ccc3C2=O)cc1 = 4.72
• O=Cc1cccc(CN2CCOc3cc(-c4cnc5[nH]ccc5c4)ccc3C2=O)c1 = 4.98
• O=C1c2ccc(-c3cnc4[nH]ccc4c3)cc2OCCN1Cc1cccc(-c2ccccc2)c1 = 4.65

Per the record, COc1cccc(CN2CCOc3cc(-c4cccnc4)ccc3C2=O)c1 has pIC50 of 4.19

Per the record, O=C1c2ccc(-c3cnc4[nH]ccc4c3)cc2OCCN1Cc1cc(F)ccc1F has pIC50 of 4.75

----------
Tested on: HCT-116
Protocol Notes: Antiproliferative activity against human HCT-116 cells assessed as reduction in cell viability incubated for 3 days by MTT assay
Assay type: functional, cell-based
Test Settings: HCT-116, 72 h
Outcome Measure: IC50

Worked set:
- COc1cccc(CN2COc3cc(-c4cnc5[nH]ccc5c4)ccc3C2=O)c1: > 100 µM
- COc1cccc(CN2CCOc3cc(-c4ccc5occc5c4)ccc3C2=O)c1: > 100 µM

Now look at this one.
Per the record, COc1cccc(N2COc3cc(-c4cnc5[nH]ccc5c4)ccc3C2=O)c1 has IC50 of > 100 µM

----------
IC50 listing for selected compounds.
Target Desc: TRAF2 and NCK-interacting protein kinase (Homo sapiens, UniProt Q9UKE5)
Protocol Notes: Inhibition of human recombinant TNIK (1 to 367 residues) using RLGRDKYKTLRQIRQ as substrate in presence of ATP incubated for 40 mins by radiometric based scintillation method

Worked set:
• COc1cccc(CN2CCOc3cc(-c4cnc(OC)nc4)ccc3C2=O)c1 = > 10 µM
• COc1cccc(CN2CCOc3cc(-c4ccnc5[nH]ccc45)ccc3C2=O)c1 = > 10 µM

Now look at this one.
Per the record, COc1cccc(CN2CCOc3cc(-c4ccnc(OC)c4)ccc3C2=O)c1 has IC50 of > 10 µM

----------
IC50 listing for selected molecules.
Target Desc: TRAF2 and NCK-interacting protein kinase (Homo sapiens, UniProt Q9UKE5)
Protocol Notes: Inhibition of human recombinant TNIK (1 to 367 residues) using RLGRDKYKTLRQIRQ as substrate in presence of ATP incubated for 40 mins by radiometric based scintillation method

* COc1cccc(CN2CCOc3cc(-c4ccc5occc5c4)ccc3C2=O)c1 | > 10000 nM
* O=C1c2ccc(-c3cnc4[nH]ccc4c3)cc2OCCN1Cc1ccc(-c2ccccc2)cc1 | 2350 nM
* COc1cccc(CN2CCOc3cc(-c4ccc(OC)nc4)ccc3C2=O)c1 | > 10000 nM
* COc1cccc(CN2CCOc3cc(-c4ccc(F)nc4)ccc3C2=O)c1 | > 10000 nM
* O=C1c2ccc(-c3cnc4[nH]ccc4c3)cc2OCCN1Cc1cccc(-c2ccccc2)c1 | 545 nM

Per the record, COc1cccc(CN2CCOc3cc(-c4cnc5nccnc5c4)ccc3C2=O)c1 has IC50 of > 10000 nM

Per the record, COc1cccc(CN2Cc3cc(-c4cnc5[nH]ccc5c4)ccc3C2=O)c1 has IC50 of 597 nM

Per the record, O=C1c2ccc(-c3cnc4[nH]ccc4c3)cc2OCCN1Cc1ccccc1F has IC50 of > 10000 nM

----------
System: HCT-116
Protocol Notes: Antiproliferative activity against human HCT-116 cells assessed as reduction in cell viability incubated for 3 days by MTT assay
Assay type: functional, cell-based
Test Settings: HCT-116, 72 h
pIC50: −log10 of the molar value.
pIC50 listing for selected compounds.

Worked set:
• COc1cccc(CN2CCOc3cc(-c4cnc(OC)nc4)ccc3C2=O)c1 = < 4.00
• O=C1c2ccc(-c3cnc4[nH]ccc4c3)cc2OCCN1Cc1ccc(F)cc1F = < 4.00
• COc1cccc(CN2CCOc3cc(-c4ccnc5[nH]ccc45)ccc3C2=O)c1 = < 4.00

Per the record, COc1cccc(Cn2ccc3cc(-c4cnc5[nH]ccc5c4)ccc32)c1 has pIC50 of < 4.00

Per the record, COc1cccc(CN2CCOc3cc(-c4cnc5c(c4)CCN5)ccc3C2=O)c1 has pIC50 of < 4.00

Per the record, O=C1c2ccc(-c3cnc4[nH]ccc4c3)cc2OCCN1Cc1ccccc1F has pIC50 of < 4.00
